target: EZH2 (Homo sapiens, UniProt Q15910); test: EZH2 assay: rPRC2 with biotinylated oligonucleosome substrates and 3H SAM, FlashPlate scintillation counting, IC50; format: biochemical; conditions: rPRC2, biotinylated oligonucleosome substrates, 3H SAM; read-out: EZH2 IC50
Sequence (Q15910 whole entry): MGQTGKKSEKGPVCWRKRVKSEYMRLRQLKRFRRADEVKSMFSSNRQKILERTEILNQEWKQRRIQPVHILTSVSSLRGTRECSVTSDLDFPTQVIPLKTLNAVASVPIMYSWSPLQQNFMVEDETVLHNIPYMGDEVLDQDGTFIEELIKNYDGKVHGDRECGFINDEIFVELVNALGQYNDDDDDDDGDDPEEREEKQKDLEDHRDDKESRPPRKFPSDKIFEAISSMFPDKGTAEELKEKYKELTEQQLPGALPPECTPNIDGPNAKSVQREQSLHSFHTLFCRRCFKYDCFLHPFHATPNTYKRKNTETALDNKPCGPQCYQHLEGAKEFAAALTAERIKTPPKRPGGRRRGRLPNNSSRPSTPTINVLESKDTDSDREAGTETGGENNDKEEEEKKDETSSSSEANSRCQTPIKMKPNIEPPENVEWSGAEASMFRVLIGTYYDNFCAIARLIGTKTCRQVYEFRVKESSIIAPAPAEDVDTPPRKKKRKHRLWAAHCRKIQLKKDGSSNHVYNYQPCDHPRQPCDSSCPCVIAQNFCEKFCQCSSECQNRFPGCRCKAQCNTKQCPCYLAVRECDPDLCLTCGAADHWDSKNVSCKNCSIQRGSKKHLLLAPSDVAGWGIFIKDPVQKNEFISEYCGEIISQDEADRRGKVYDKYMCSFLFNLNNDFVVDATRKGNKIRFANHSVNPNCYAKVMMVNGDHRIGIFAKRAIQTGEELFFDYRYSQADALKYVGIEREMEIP
Sequence (O75530 whole entry partner): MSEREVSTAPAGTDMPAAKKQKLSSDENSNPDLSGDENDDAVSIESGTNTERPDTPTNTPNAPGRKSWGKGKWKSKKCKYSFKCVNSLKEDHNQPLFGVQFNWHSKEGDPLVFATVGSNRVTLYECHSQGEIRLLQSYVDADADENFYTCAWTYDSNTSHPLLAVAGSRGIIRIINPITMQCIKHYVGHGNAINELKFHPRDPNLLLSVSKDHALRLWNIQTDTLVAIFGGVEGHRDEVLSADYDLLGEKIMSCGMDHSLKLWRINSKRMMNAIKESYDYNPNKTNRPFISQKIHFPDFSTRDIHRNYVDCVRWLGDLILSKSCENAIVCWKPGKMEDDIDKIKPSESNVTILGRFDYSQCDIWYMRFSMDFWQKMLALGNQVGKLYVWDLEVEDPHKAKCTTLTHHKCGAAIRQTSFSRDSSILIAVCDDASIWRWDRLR
Sequence (Q15022 whole entry partner): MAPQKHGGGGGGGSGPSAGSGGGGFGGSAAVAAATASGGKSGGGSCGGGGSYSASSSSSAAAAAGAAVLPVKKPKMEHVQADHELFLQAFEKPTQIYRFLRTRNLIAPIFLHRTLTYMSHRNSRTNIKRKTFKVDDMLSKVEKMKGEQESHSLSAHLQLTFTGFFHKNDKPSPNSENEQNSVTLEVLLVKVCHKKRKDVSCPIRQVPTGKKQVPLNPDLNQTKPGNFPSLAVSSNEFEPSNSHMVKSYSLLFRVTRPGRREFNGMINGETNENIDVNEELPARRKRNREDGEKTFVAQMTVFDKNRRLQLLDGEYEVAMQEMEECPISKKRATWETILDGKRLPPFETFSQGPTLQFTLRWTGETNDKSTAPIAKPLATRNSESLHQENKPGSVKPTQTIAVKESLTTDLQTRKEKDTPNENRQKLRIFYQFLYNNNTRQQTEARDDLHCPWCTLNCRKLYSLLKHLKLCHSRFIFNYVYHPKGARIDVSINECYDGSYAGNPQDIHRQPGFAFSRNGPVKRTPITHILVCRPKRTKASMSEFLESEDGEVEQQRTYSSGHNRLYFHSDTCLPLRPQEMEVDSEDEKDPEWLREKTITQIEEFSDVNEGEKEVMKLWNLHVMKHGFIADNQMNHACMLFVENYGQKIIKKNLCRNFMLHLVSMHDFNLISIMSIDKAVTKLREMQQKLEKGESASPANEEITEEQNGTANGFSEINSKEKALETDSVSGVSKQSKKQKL
Measured endpoint: IC50

Solved cases (2 shown):
[[record]]
compound = "N#Cc1ccccc1Oc1ccc(C(=O)N[C@@H]2C[C@H]3CC[C@@H](C2)N3)cc1Cl"
measured_endpoint = "IC50"
val = "20 to 80 µM"

[[record]]
compound = "CC1(C)CC(NC(=O)c2ccc(Oc3ccccc3C#N)c(Cl)c2)C(F)(F)C(C)(C)N1 (centres unmarked)"
measured_endpoint = "IC50"
val = "20 to 80 µM"


Batch request: IC50 for each of the following compounds.
1. CC1(C)CC(NC(=O)c2ccc(OC(C#N)c3ccccc3)c(Cl)c2)CC(C)(C)N1 (centres unmarked)
2. CC1(C)CC(NC(=O)c2ccc(Oc3ccccc3-c3nn[nH]n3)c(Br)c2)CC(C)(C)N1
3. CC1(C)CC(NC(=O)c2ccc(COc3ccncc3)cc2)CC(C)(C)N1
4. Cc1ccc(-c2ccccc2Oc2ccc(C(=O)NC3CC(C)(C)NC(C)(C)C3)cc2Cl)cn1

1: > 80 µM; 2: > 80 µM; 3: > 80 µM; 4: < 5 µM

Record IC50 for all entries; do not skip any.
1. CC(C)NC(=O)c1ccc(Oc2ccccc2)cc1
2. CC1(C)CC(NC(=O)c2ccc(Oc3cccc(F)c3C#N)c(Cl)c2)CC(C)(C)N1

1. > 80 µM
2. < 5 µM
